Entries and their measured Kp at 24 h follow.
- assay summary: Brain levels (kp and kpu,u) after oral administration
- Format: in vivo, CDI mice
- condition notes: CDI, mouse, brain / plasma, po, 20 mg/kg, mice, 20 mpk PO, whole brain AUC over 24 h divided by plasma AUC; read-out: kp (raw)

Solved cases below.
CC1(C)C[C@H](Nc2nnc(-c3ccc(C(F)F)cc3O)c3ccncc23)CO1 (single isomer, unassigned) [Compound 23B] ... 0.28
OCC1(CNc2nnc(-c3ccc(Cl)cc3O)c3ccncc23)CC1 [Compound 8, reference compound] ... 0.18
Oc1cc(C(F)(F)F)ccc1-c1nnc(N[C@H]2COC3(CC3)C2)c2cnccc12 (single isomer, unassigned) ... 1.4
Cc1cc(O)c(-c2nnc(N[C@H]3COC(C)(C)C3)c3cnccc23)c(Cl)c1 (single isomer, unassigned) ... 0.1
Cc1ccc(-c2nnc(N[C@H]3COC(C)(C)C3)c3cnccc23)c(O)c1 ... 0.44

**Q:** Which Kp at 24 h value is on record for CC1(C)OCC[C@H]1Nc1nnc(-c2ccc(C(F)(F)F)cc2O)c2ccncc12 (single isomer, unassigned) ?
**A:** 1.1

**Q:** Find the recorded Kp at 24 h belonging to CC1(C)COCC[C@@H]1Nc1nnc(-c2ccc(Cl)cc2O)c2ccncc12 (single isomer, unassigned) and report it.
**A:** 0.58

**Q:** Find the recorded Kp at 24 h belonging to CC1(C)C[C@@H](Nc2nnc(-c3ccc(OC(F)F)cc3O)c3ccncc23)CO1 (single isomer, unassigned) and report it.
**A:** 0.24

Recorded values, source patent US12331048B2.
